The measurements presented in this section are drawn from PubChem BioAssay AID588468.

subject.of.test: Beta-adrenergic receptor kinase 1 (Homo sapiens)
experiment.description: direct GRK2 binders by thermal shift, late-stage follow-up, orthogonal assay for GRK2 aptamer-displacement inhibitor project, biophysical, Thermofluor, set 2 (AID 588468)
recorded.conditions: purified GRK2 thermal shift, ANS fluorescence; at 200 µM; active compounds read high
For each of the molecules below, state its thermal stabilization response.
Numbers only, in %.

stdin: # thermal stabilization response lookup, item CC(CS(=O)(=O)c1ccc2c(c1)NC(=O)CS2)C(=O)NCc1ccccc1Cl (stereo unspecified)
stdout: -20.4

stdin: Query (molecule): "CC(=O)N1CCN(Cc2nc3cc(Cl)ccc3c(=O)[nH]2)CC1" ; field requested: thermal stabilization response
stdout: -41.4

stdin: Could you tell me which thermal stabilization response is on file for "CCOc1ccc(NC(=O)CCS(=O)(=O)c2ccc(Br)cc2)cc1" ?
stdout: -25.9

stdin: Please report the recorded thermal stabilization response for "O=C(CCS(=O)(=O)c1ccc(Br)cc1)NCc1cccs1" .
stdout: -152

stdin: Name the reported thermal stabilization response value associated with the molecule "C#CCSc1nc2sc3c(c2c(=O)n1C)CCC3"
stdout: 21.3

New cases:
stdin: For "CCN(CC)c1ccc(NC(=O)CCS(=O)(=O)c2ccc(Br)cc2)c(C)c1" , what is its reported thermal stabilization response?
stdout: 72
